These measurements were taken from the OligoGym collection.

- experimental_target: PTPN6; further: test concentration or dose not given here
- measurement_parameters: ASO
These antisense oligonucleotides have a phosphorothioate backbone; sugars and methylation of C are not fully specified.
Class boundaries, taken from values of remaining target (mRNA or protein) (fraction of control), are as follows: L: < 0.6; M: ≥ 0.6 and < 0.8; H: ≥ 0.8

Before answering, review these 10 worked examples.
CGTGAGGCTGTCGAAGGTCT : H
GCATCTCTCTGTAGGGAGGG : H
CCCTGACGGAGAGCGAGAAG : H
ACGGGACAGCATCTCTCTGT : M
ACCCACGGGACAGCATCTCT : H
GCCACGCCATCTGCCAGAAG : M
TCAGCCGCATTCACCCTCGT : L
GGGACAGCATCTCTCTGTAG : H
TCATGCTCCCCGCAGTTGGT : L
AGCAGGGTCTCTGCATCCAG : H

Problem: Sort GAGGACAGCACCGCTCACTT into one of the categories.
Solution: H

Problem: Sort TCAGAGTCGCAAACTTCTCC into one of the categories.
Solution: H

Problem: Sort GGCCTGGCTGGGCTATATAC into one of the categories.
Solution: H

Problem: Sort TGAGTCTGTCCATCGCGAAA into one of the categories.
Solution: M

Problem: Sort GCGCCTGAGGCCTCCTCAAT into one of the categories.
Solution: H

Problem: Sort CTCTTGAGGGAACCCTTGCT into one of the categories.
Solution: L

Problem: Sort GAAACCACCCACGGGACAGC into one of the categories.
Solution: H

Problem: Sort CGCATTTGTTCCGGCCTTTC into one of the categories.
Solution: M

Problem: Sort TCTCATCAGGGCCTAGCAGC into one of the categories.
Solution: M

Problem: Sort GGGAGAATGTTCTTGTAGCG into one of the categories.
Solution: H

Problem: Sort ATGTGGCCATGGTACCACCT into one of the categories.
Solution: H

Problem: Sort GACCCCATGGTCGGGCCAGC into one of the categories.
Solution: H

Problem: Sort TGCCGGCGCTGCAGTGCACG into one of the categories.
Solution: H

Problem: Sort TGGTGCCGTCGCGGTCCTGC into one of the categories.
Solution: L

Problem: Sort GATGAACTTGTACTGCGCCT into one of the categories.
Solution: H

Problem: Sort AGGCTCTCACGCACAAGAAA into one of the categories.
Solution: M

Problem: Sort AACCACCCACGGGACAGCAT into one of the categories.
Solution: L

Problem: Sort GATGTCAATGTCACAGTCCA into one of the categories.
Solution: M

Problem: Sort GTGCAGGTTCTCATACACAT into one of the categories.
Solution: M

Problem: Sort CCACCTGAGGACAGCACCGC into one of the categories.
Solution: H

Problem: Sort TTCAGTGATCCCAGGGCTTT into one of the categories.
Solution: M
